# target: IRAK4 (Homo sapiens (Human))
# Sequence (Q9NWZ3 whole entry, species assumed): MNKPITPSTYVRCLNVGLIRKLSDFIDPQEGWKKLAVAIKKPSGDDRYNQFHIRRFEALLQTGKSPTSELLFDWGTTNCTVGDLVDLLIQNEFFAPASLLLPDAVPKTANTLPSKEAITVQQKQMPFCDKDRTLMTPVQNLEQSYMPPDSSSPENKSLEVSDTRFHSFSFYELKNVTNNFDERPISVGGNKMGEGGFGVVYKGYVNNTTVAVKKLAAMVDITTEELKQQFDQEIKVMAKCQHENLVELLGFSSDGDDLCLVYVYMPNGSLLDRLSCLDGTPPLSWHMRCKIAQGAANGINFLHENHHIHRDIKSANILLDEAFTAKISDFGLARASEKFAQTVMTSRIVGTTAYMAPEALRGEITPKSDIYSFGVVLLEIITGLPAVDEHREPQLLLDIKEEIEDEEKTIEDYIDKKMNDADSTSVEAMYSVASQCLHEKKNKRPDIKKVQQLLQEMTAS
# test_details: IRAK4 Inhibition Assay
# Type: biochemical
# particulars: ATP 500 μM; IRAK4 0.6 nM; 60 min at room temperature; read-out: IRAK4 IC50
The label Fulfilled is reserved for IC50 strictly under 5 nM; Not fulfilled covers values equal to or above it.

The examples below pair each entry with its known result.
compound	class_name
CNC(=O)[C@H]1CC[C@H](NC(=O)c2cnc(Nc3ncc(C#N)cc3F)cc2NC(C)C)CC1 [Example 18]	Fulfilled
CC(C)(O)[C@H](F)CNC(=O)c1cnc(Nc2ncc(C#N)cc2Cl)cc1Nc1ccc2ncsc2c1 [Example 153]	Not fulfilled
CC(=O)N[C@H](C)CCNC(=O)c1cnc(Nc2ncc(C#N)cc2F)cc1NC(C)C [Example 64]	Fulfilled
CC(C)(O)[C@H](F)CNC(=O)c1cnc(Nc2ncc(C#N)cc2F)cc1NCC(F)(F)C(C)(C)O [Example 126]	Fulfilled

INPUT: Is the reported IC50 for CC(=O)N1CCC(NC(=O)c2cnc(Nc3ccc(C#N)cn3)cc2NC(C)C)CC1 [Example 8] strictly below 5 nM?
OUTPUT: Not fulfilled

INPUT: Is the reported IC50 for CC(C)(O)[C@H](F)CNC(=O)c1cnc(Nc2ncc(C#N)c(N)n2)cc1NC1CC1 [Example 154] strictly below 5 nM?
OUTPUT: Not fulfilled

INPUT: Is the reported IC50 for Cc1nc(Nc2cc(NC(C)C)c(C(=O)NC[C@@H](F)C(C)(C)O)cn2)ccc1C#N [Example 63] strictly below 5 nM?
OUTPUT: Fulfilled

INPUT: Is the reported IC50 for CC(C)(F)CNc1cc(Nc2ncc(C#N)cc2Cl)ncc1C(=O)NC1CCC(C(C)(C)O)CC1 (stereo not shown) [Example 103] strictly below 5 nM?
OUTPUT: Not fulfilled

INPUT: Is the reported IC50 for COc1cnc(Nc2cc(NC3CCC3)c(C(=O)NC[C@@H](F)C(C)(C)O)cn2)nc1 [Example 112] strictly below 5 nM?
OUTPUT: Not fulfilled

INPUT: Is the reported IC50 for CC(C)Nc1cc(Nc2ncc(C#N)c(N)n2)ncc1C(=O)NC[C@@H](F)C(C)(C)O [Example 136] strictly below 5 nM?
OUTPUT: Fulfilled

INPUT: Is the reported IC50 for CC(C)(O)[C@H](F)CNC(=O)c1cnc(Nc2ncc(C#N)cc2Cl)cc1NC1CCCC1F (stereo partly shown) [Example 71] strictly below 5 nM?
OUTPUT: Fulfilled

INPUT: Is the reported IC50 for CCn1ncc(Nc2cc(NC(C)C)c(C(=O)NC[C@@H](F)C(C)(C)O)cn2)n1 [Example 72] strictly below 5 nM?
OUTPUT: Not fulfilled

INPUT: Is the reported IC50 for CNC(=O)[C@H]1CC[C@H](NC(=O)c2cnc(Nc3ncc(C#N)cc3F)cc2NC2CC2)CC1 [Example 59] strictly below 5 nM?
OUTPUT: Not fulfilled

INPUT: Is the reported IC50 for CC(C)(O)[C@H](F)CNC(=O)c1cnc(Nc2ncc(C#N)cc2Cl)cc1Nc1cccc(C#N)c1 [Example 162] strictly below 5 nM?
OUTPUT: Fulfilled

INPUT: Is the reported IC50 for CC(C)Nc1cc(Nc2ccc(C#N)cn2)ncc1C(=O)NC[C@@H](F)C(C)(C)O [Example 2] strictly below 5 nM?
OUTPUT: Fulfilled
